Each entry below carries its recorded amyloid nucleation score.
Experiment: amyloid nucleation score (Sup35N fusion, yeast selection) (log enrichment); library NNK1; higher = more nucleation; inactive = no reads after selection;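 further: zero at mode of non-aggregating sequences after 7 days selection at 30°C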
measured.property: amyloid nucleation score

>  <substance>
NNWSVQSGNFTFCSGRGLCS

>  <measured.property>
amyloid nucleation score

>  <value.measured>
7.44

$$$$
>  <substance>
NNTFGLGNFTDSFCNIRSEK

>  <measured.property>
amyloid nucleation score

>  <value.measured>
0.572

$$$$
>  <substance>
LPSNFCVKLSSTYYQVFG

>  <measured.property>
amyloid nucleation score

>  <value.measured>
-2.37

$$$$
>  <substance>
CSVFWCFVLGLVNRNLLKRS

>  <measured.property>
amyloid nucleation score

>  <value.measured>
-0.928

$$$$
>  <substance>
SLVYQYIVLCTV

>  <measured.property>
amyloid nucleation score

>  <value.measured>
-1.47

$$$$
>  <substance>
VSWHHLVLLKGRLLEVSLSS

>  <measured.property>
amyloid nucleation score

>  <value.measured>
-0.158

$$$$
>  <substance>
DFVMLEV

>  <measured.property>
amyloid nucleation score

>  <value.measured>
-0.594

$$$$
>  <substance>
WFYDAAFTMKVTVAIFVFFR

>  <measured.property>
amyloid nucleation score

>  <value.measured>
0.675

$$$$
>  <substance>
ITMVISLCALFMSRSIIFKG

>  <measured.property>
amyloid nucleation score

>  <value.measured>
-0.154

$$$$
